B1: unnamed (parent)
chain 1: DHQIRELTAKMETQSMYVSELKRTIRTLEDKVAEIEAQQCNGIYIWKIGNFGMHLKCQEEEKPVVIHSPGFYTGKPGYKLCMRLHLQLPTAQRCANYISLFVHTMQGEYDSHLPWPFQGTIRLTILDQSEAPVRQNHEEIMDAKPELLAFQRPTIPRNPKGFGYVTFMHLEALRQRTFIKDDTLLVRCEVSTRFDMGSLRREGFQPRSTDAGV
chain 2: GGGPYAQGEDARMLSLVSKTEIEEDSFRQMPTEDEYMDRPSQ

Variants of: B1
Experiment: AlphaScreen
Details: with partner chain of the complex shown
ENDPOINT_NAME: pKd
pKd field: float, defined as -log10 of concentration (mol/L).

Exercise: Please report the recorded pKd for chain 2 E33Q .
Solution: 7.81
